# experimental system: Penicillin-binding protein 1B (Escherichia coli K-12) (UniProt P02919)
# Sequence (P02919 whole entry): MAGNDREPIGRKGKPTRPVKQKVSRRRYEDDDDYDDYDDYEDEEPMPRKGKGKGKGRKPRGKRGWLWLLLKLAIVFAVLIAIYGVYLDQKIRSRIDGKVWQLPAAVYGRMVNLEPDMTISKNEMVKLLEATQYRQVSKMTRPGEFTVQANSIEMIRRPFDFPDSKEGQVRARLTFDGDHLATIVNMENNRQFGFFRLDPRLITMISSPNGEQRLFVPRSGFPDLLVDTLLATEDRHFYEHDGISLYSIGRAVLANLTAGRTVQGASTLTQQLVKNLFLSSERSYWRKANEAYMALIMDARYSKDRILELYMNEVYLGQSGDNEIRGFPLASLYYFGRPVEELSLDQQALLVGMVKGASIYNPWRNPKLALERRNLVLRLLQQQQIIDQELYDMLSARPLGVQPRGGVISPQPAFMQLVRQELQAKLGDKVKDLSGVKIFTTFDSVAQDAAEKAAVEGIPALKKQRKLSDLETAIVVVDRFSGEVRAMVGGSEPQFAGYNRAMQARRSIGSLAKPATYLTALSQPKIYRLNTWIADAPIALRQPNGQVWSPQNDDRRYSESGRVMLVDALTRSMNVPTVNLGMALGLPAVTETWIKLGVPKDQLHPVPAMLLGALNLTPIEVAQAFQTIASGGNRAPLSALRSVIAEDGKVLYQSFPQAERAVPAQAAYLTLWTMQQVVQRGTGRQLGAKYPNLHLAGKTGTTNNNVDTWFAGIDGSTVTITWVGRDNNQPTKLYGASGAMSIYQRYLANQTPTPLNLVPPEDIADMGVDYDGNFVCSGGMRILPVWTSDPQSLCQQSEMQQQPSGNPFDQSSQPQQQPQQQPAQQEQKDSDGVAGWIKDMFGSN
# test description: Affinity for penicillin binding protein 1b of Escherichia coli UB1005 (DC0) was evaluated.
# Set-up: unit not given here
# reported Binding affinity; entries follow

molecule: O=C(O)C1=C(CN2CCN(c3cc4c(cc3F)c(=O)c(C(=O)O)cn4C3CC3)CC2)CS[C@@H]2[C@H](NC(=O)C(C(=O)O)c3ccccc3)C(=O)N12 (some centres undefined)
Binding affinity: > 100
//
molecule: O=C(O)C1=C(CN2CCN(c3cc4c(cc3F)c(=O)c(C(=O)O)cn4C3CC3)CC2)CS[C@@H]2[C@H](NC(=O)[C@H](O)c3ccccc3)C(=O)N12
Binding affinity: > 100
//
molecule: CO/N=C(\C(=O)N[C@@H]1C(=O)N2C(C(=O)O)=C(COC(C)=O)CS[C@H]12)c1csc(N)n1 [CEFOTAXIME]
Binding affinity: 0.5
//
molecule: CC(C)(O/N=C(\C(=O)N[C@@H]1C(=O)N2C(C(=O)O)=C(CN3CCN(c4cc5c(cc4F)c(=O)c(C(=O)O)cn5C4CC4)CC3)CS[C@H]12)c1csc(N)n1)C(=O)O
Binding affinity: 100

====

# Test system: Enterobacter cloacae
# test description: In vitro minimum inhibitory concentration was measured against Enterobacter cloacae p99 (beta lactamase producer) strain.
# Assay type: functional

compound: CO/N=C(\C(=O)N[C@@H]1C(=O)N2C(C(=O)O)=C(CN3CCN(c4cc5c(cc4F)c(=O)c(C(=O)O)cn5C4CC4)CC3)CS[C@H]12)c1csc(N)n1
MIC: 0.125 µg/mL

compound: CC(=O)OCC1=C(C(=O)O)N2C(=O)[C@@H](NC(=O)C(O)c3ccccc3)[C@H]2SC1 (stereo partly drawn)
MIC: > 128 µg/mL

compound: CCN1CCN(C(=O)N[C@@H](C(=O)N[C@@H]2C(=O)N3C(C(=O)O)=C(CN4CCN(c5cc6c(cc5F)c(=O)c(C(=O)O)cn6C5CC5)CC4)CS[C@H]23)c2ccc(O)cc2)C(=O)C1=O
MIC: ≤ 0.016 µg/mL

====

# experimental system: Peptidoglycan D,D-transpeptidase MrdA (Escherichia coli K-12) (UniProt P0AD65)
# Sequence (P0AD65 whole entry): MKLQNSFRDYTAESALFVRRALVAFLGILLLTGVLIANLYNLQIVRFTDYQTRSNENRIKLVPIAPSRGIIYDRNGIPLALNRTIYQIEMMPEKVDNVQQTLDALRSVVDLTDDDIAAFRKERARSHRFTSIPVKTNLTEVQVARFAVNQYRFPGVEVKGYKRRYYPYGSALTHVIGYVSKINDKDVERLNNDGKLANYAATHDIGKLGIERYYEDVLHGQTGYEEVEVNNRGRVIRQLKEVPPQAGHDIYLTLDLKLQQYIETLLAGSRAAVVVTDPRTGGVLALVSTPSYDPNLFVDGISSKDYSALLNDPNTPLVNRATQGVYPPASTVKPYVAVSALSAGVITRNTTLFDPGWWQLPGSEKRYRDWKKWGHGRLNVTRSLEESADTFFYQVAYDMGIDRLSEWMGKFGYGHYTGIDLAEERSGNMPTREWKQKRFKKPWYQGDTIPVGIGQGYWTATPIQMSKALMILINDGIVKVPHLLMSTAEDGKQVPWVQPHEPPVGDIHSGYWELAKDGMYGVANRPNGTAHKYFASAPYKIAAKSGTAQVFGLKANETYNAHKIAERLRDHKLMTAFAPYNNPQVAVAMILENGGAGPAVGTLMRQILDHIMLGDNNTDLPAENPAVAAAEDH
# test description: Affinity for penicillin binding protein 2 of Escherichia coli UB1005 (DC0) was evaluated.
# Design: unit not given here

molecule: CO/N=C(\C(=O)N[C@@H]1C(=O)N2C(C(=O)O)=C(CN3CCN(c4cc5c(cc4F)c(=O)c(C(=O)O)cn5C4CC4)CC3)CS[C@H]12)c1csc(N)n1
Binding affinity: 100

molecule: CCN1CCN(C(=O)N[C@@H](C(=O)N[C@@H]2C(=O)N3C(C(=O)O)=C(CSc4nnnn4C)CS[C@H]23)c2ccc(O)cc2)C(=O)C1=O
Binding affinity: 2

molecule: CO/N=C(\C(=O)N[C@@H]1C(=O)N2C(C(=O)O)=C(CN3CCNCC3)CS[C@H]12)c1csc(N)n1
Binding affinity: > 100

molecule: CC(C)(O/N=C(\C(=O)N[C@@H]1C(=O)N2C(C(=O)O)=C(CN3CCN(c4cc5c(cc4F)c(=O)c(C(=O)O)cn5C4CC4)CC3)CS[C@H]12)c1csc(N)n1)C(=O)O
Binding affinity: 100

molecule: O=C(O)C1=C(CN2CCN(c3cc4c(cc3F)c(=O)c(C(=O)O)cn4C3CC3)CC2)CS[C@@H]2[C@H](NC(=O)[C@H](O)c3ccccc3)C(=O)N12
Binding affinity: > 100

molecule: CO/N=C(\C(=O)N[C@@H]1C(=O)N2C(C(=O)O)=C(COC(C)=O)CS[C@H]12)c1csc(N)n1 [CEFOTAXIME]
Binding affinity: 100

molecule: CCN1CCN(C(=O)N[C@@H](C(=O)N[C@@H]2C(=O)N3C(C(=O)O)=C(CN4CCN(c5cc6c(cc5F)c(=O)c(C(=O)O)cn6C5CC5)CC4)CS[C@H]23)c2ccc(O)cc2)C(=O)C1=O
Binding affinity: > 100

====

# Tested on: Escherichia coli
# test description: Minimum inhibitory concentration for DC2, a permeability mutant
In this section we review reported MIC values for a set of compounds.

compound: CO/N=C(\C(=O)N[C@@H]1C(=O)N2C(C(=O)O)=C(CN3CCN(c4cc5c(cc4F)c(=O)c(C(=O)O)cn5C4CC4)CC3)CS[C@H]12)c1csc(N)n1
MIC: 0.063 µg/mL
//
compound: Nc1nc(/C(=N/OCC(=O)O)C(=O)N[C@@H]2C(=O)N3C(C(=O)O)=C(CN4CCN(c5cc6c(cc5F)c(=O)c(C(=O)O)cn6C5CC5)CC4)CS[C@H]23)cs1
MIC: 4 µg/mL
//
compound: O=C(O)C1=C(CN2CCN(c3cc4c(cc3F)c(=O)c(C(=O)O)cn4C3CC3)CC2)CS[C@@H]2[C@H](NC(=O)[C@H](O)c3ccccc3)C(=O)N12
MIC: 2 µg/mL
//
compound: CC(C)(O/N=C(\C(=O)N[C@@H]1C(=O)N2C(C(=O)O)=C(CN3CCN(c4cc5c(cc4F)c(=O)c(C(=O)O)cn5C4CC4)CC3)CS[C@H]12)c1csc(N)n1)C(=O)O
MIC: 0.25 µg/mL
//
compound: CCN1CCN(C(=O)N[C@@H](C(=O)N[C@@H]2C(=O)N3C(C(=O)O)=C(CN4CCN(c5cc6c(cc5F)c(=O)c(C(=O)O)cn6C5CC5)CC4)CS[C@H]23)c2ccc(O)cc2)C(=O)C1=O
MIC: 0.25 µg/mL
//
compound: O=C(O)C1=C(CN2CCN(c3cc4c(cc3F)c(=O)c(C(=O)O)cn4C3CC3)CC2)CS[C@@H]2[C@H](NC(=O)C(C(=O)O)c3ccccc3)C(=O)N12 (stereo partly drawn)
MIC: 2 µg/mL
//
compound: CO/N=C(\C(=O)N[C@@H]1C(=O)N2C(C(=O)O)=C(CN3CCNCC3)CS[C@H]12)c1csc(N)n1
MIC: 0.25 µg/mL
//
compound: CO/N=C(\C(=O)N[C@@H]1C(=O)N2C(C(=O)O)=C(COC(C)=O)CS[C@H]12)c1csc(N)n1 [CEFOTAXIME]
MIC: < 0.016 µg/mL

====

# Tested on: Escherichia coli
# test description: In vitro minimum inhibitory concentration was measured against Escherichia coli TEM-1 (Beta lactamase producer) strain.
# Assay type: functional
value type: MIC (µg/mL)

compound: CC(C)(O/N=C(\C(=O)N[C@@H]1C(=O)N2C(C(=O)O)=C(CN3CCN(c4cc5c(cc4F)c(=O)c(C(=O)O)cn5C4CC4)CC3)CS[C@H]12)c1csc(N)n1)C(=O)O
value type: MIC
quantitative result: 0.5

compound: CO/N=C(\C(=O)N[C@@H]1C(=O)N2C(C(=O)O)=C(CN3CCNCC3)CS[C@H]12)c1csc(N)n1
value type: MIC
quantitative result: 0.5

compound: CC(=O)OCC1=C(C(=O)O)N2C(=O)[C@@H](NC(=O)C(O)c3ccccc3)[C@H]2SC1 (stereo partly drawn)
value type: MIC
quantitative result: 8

compound: Nc1nc(/C(=N/OCC(=O)O)C(=O)N[C@@H]2C(=O)N3C(C(=O)O)=C(CN4CCN(c5cc6c(cc5F)c(=O)c(C(=O)O)cn6C5CC5)CC4)CS[C@H]23)cs1
value type: MIC
quantitative result: 0.5

compound: O=C(O)C1=C(CN2CCN(c3cc4c(cc3F)c(=O)c(C(=O)O)cn4C3CC3)CC2)CS[C@@H]2[C@H](NC(=O)[C@H](O)c3ccccc3)C(=O)N12
value type: MIC
quantitative result: 0.125

compound: CO/N=C(\C(=O)N[C@@H]1C(=O)N2C(C(=O)O)=C(CN3CCN(c4cc5c(cc4F)c(=O)c(C(=O)O)cn5C4CC4)CC3)CS[C@H]12)c1csc(N)n1
value type: MIC
quantitative result: 0.25

compound: CCN1CCN(C(=O)N[C@@H](C(=O)N[C@@H]2C(=O)N3C(C(=O)O)=C(CN4CCN(c5cc6c(cc5F)c(=O)c(C(=O)O)cn6C5CC5)CC4)CS[C@H]23)c2ccc(O)cc2)C(=O)C1=O
value type: MIC
quantitative result: 0.031

compound: CO/N=C(\C(=O)N[C@@H]1C(=O)N2C(C(=O)O)=C(COC(C)=O)CS[C@H]12)c1csc(N)n1
value type: MIC
quantitative result: 0.063

====

# Tested on: Penicillin-binding protein 3 (Escherichia coli)
# test description: Affinity for penicillin binding protein 3 of Escherichia coli UB1005 (DC0) was evaluated.
# Set-up: unit not given here
value type: Binding affinity

compound: CO/N=C(\C(=O)N[C@@H]1C(=O)N2C(C(=O)O)=C(CN3CCNCC3)CS[C@H]12)c1csc(N)n1
experimental system: Penicillin-binding protein 3 (Escherichia coli)
quantitative result: 100
--
compound: O=C(O)C1=C(CN2CCN(c3cc4c(cc3F)c(=O)c(C(=O)O)cn4C3CC3)CC2)CS[C@@H]2[C@H](NC(=O)C(C(=O)O)c3ccccc3)C(=O)N12 (stereo partly specified)
experimental system: Penicillin-binding protein 3 (Escherichia coli)
quantitative result: 100
--
compound: CC(C)(O/N=C(\C(=O)N[C@@H]1C(=O)N2C(C(=O)O)=C(CN3CCN(c4cc5c(cc4F)c(=O)c(C(=O)O)cn5C4CC4)CC3)CS[C@H]12)c1csc(N)n1)C(=O)O
experimental system: Penicillin-binding protein 3 (Escherichia coli)
quantitative result: 2
--
compound: CCN1CCN(C(=O)N[C@@H](C(=O)N[C@@H]2C(=O)N3C(C(=O)O)=C(CN4CCN(c5cc6c(cc5F)c(=O)c(C(=O)O)cn6C5CC5)CC4)CS[C@H]23)c2ccc(O)cc2)C(=O)C1=O
experimental system: Penicillin-binding protein 3 (Escherichia coli)
quantitative result: 2
--
compound: CO/N=C(\C(=O)N[C@@H]1C(=O)N2C(C(=O)O)=C(CN3CCN(c4cc5c(cc4F)c(=O)c(C(=O)O)cn5C4CC4)CC3)CS[C@H]12)c1csc(N)n1
experimental system: Penicillin-binding protein 3 (Escherichia coli)
quantitative result: 0.5
--
compound: Nc1nc(/C(=N/OCC(=O)O)C(=O)N[C@@H]2C(=O)N3C(C(=O)O)=C(CN4CCN(c5cc6c(cc5F)c(=O)c(C(=O)O)cn6C5CC5)CC4)CS[C@H]23)cs1
experimental system: Penicillin-binding protein 3 (Escherichia coli)
quantitative result: 2
